Assay comment: DPPH radical scavenging activity assay
Test conditions: Table 3, isolated compounds; listed as Comp. 3
Observed property: IC50 (µM)
The response must be a number in µM with no trailing unit.

Input: What does the record list as IC50 for O=C(O)C1OC(Oc2c(-c3ccc(O)c(O)c3)oc3cc(O)cc(O)c3c2=O)C(O)C(O)C1O (stereo not shown) [Compound 3, quercetin-3-O-glucuronide] ?
Output: 31.2

---

Assay system: mushroom tyrosinase
Assay comment: Tyrosinase inhibition assay
Test conditions: Table 3, isolated compounds
pIC50: −log10 of the molar value.
Reported values of pIC50 for individual entries

Illustrative cases are given below, each with its answer.
INSERT INTO assay_data (molecule, reading) VALUES
  ('COC(=O)C1OC(Oc2c(-c3ccc(O)cc3)oc3cc(O)cc(O)c3c2=O)C(O)C(O)C1O (stereo not drawn) [Compound 5, kaempferol-3-(6-methylglucuronide)]', '< 4.00'),
  ('COC(=O)C1OC(Oc2c(-c3ccc(O)c(O)c3)oc3cc(O)cc(O)c3c2=O)C(O)C(O)C1O (stereo not drawn) [Compound 6, quercetin-3-(6-methylglucuronide)]', '< 4.00');

Please examine the following record next.
Input: What does the record list as pIC50 for O=C(O)C1OC(Oc2c(-c3ccc(O)c(O)c3)oc3cc(O)cc(O)c3c2=O)C(O)C(O)C1O (stereo not drawn) [Compound 3, quercetin-3-O-glucuronide] ?
Output: < 4.00

---

Reported values of pIC50 for individual entries
Assay system: mushroom tyrosinase
Assay comment: Tyrosinase inhibition assay
Test conditions: Table 3, isolated compounds
pIC50: −log10 of the molar value.

INSERT INTO measurements (molecule, reading) VALUES
  ('O=c1c(O[C@@H]2O[C@H](CO)[C@@H](O)[C@H](O)[C@H]2O)c(-c2ccc(O)c(O)c2)oc2cc(O)cc(O)c12 [Compound 2, quercetin-3-O-glucoside]', '< 4.00'),
  ('COc1ccc(/C=C/C(=O)OC(C(=O)O)C(O)C(=O)O)cc1O (stereo not drawn) [Compound 4, 4-methoxy caftraric acid]', '< 4.00');

Input: Request body: readout pIC50, system mushroom tyrosinase, query CC1(C)C[C@H](O)C[C@@]2(C)OC(=O)C=C12 [Compound 1, loliolide] . Return the value.
Output: < 4.00
